- Assay Overview: Pharmacokinetics in mice, single IV or oral administration
- Type: in vivo, mouse
- Experimental Parameters: blood, 10 mg/kg; mouse, oral, 10 mpk
Value Type: Tmax (h)
Response body: numeric value in h, unit text excluded.

Would you kindly share the measured Tmax for CS(=O)(=O)Nc1cc(-c2ccc3ncnc(Nc4ccc(F)c(Cl)c4)c3c2)cnc1Cl [Comparative Compound 2, reference compound] ?
1

----------
- Assay Overview: Solubility determination (PBS 7.4, SIF, SGF)
- Type: physicochemical
- Experimental Parameters: simulated intestinal fluid (SIF), kinetic from dmso stock; simulated intestinal fluid pH 6.8, 25° C., 2 hours; read-out: Solubility SIF
Value Type: solubility at 2 h

Examples from the recorded data:
CS(=O)(=O)Nc1cc(-c2ccc3ncnc(Nc4ccc(F)c(Cl)c4)c3c2)cnc1Cl [Comparative Compound 2, reference compound] = ≤ 20 µM
C[C@H](Nc1ncnc2ccc(-c3cnc(Cl)c(NS(C)(=O)=O)c3)cc12)c1ccccc1 [Compound 2S] = 100 to 200 µM
CC(Nc1c(C#N)cnc2ccc(-c3cnc(N)nc3)cc12)c1ccccc1 (stereo not shown) [Compound 53] = 20 to 100 µM
C[C@@H](Nc1c(C#N)cnc2ccc(-c3cnc(N)nc3)cc12)c1ccccc1 [Compound 53R] = 20 to 100 µM
CC(Nc1c(C#N)cnc2ccc(-c3cncc(-c4n[nH]c(=O)o4)c3)cc12)c1ccccc1 (stereo not shown) [Compound 129] = ≤ 20 µM

Could you share which solubility at 2 h value was measured for C[C@@H](Nc1ncnc2ccc(-c3cnc(Cl)c(NS(C)(=O)=O)c3)cc12)c1ccccc1 [Compound 2R] ?
100 to 200 µM

Endpoint output: solubility at 2 h of CS(=O)(=O)Nc1cc(-c2ccc3ncnc(NCc4ccccc4)c3c2)cnc1Cl [Comparative Compound 1, reference compound] . Value?
≤ 20 µM
